Test Description: in vivo
Run Parameters: male, C57BL/6J, mouse, po, 25 mg/kg, Cmax, plasma, Mean, male C57BL/6J mice, single oral dose 25 mg/kg
Quantity Kind: Cmax

{"Chemical String": "CN1CCc2cccc3c2[C@@H]1Cc1ccc(O)c(O)c1-3", "Experimental Value": "1150 ng/mL"}

* * *

Test Description: Plasma and CSF pharmacokinetic study, single sublingual, oral or subcutaneous dose, male Beagle dogs
Type: in vivo
Run Parameters: male, beagle, dog, in vivo, 5 mg/kg, single SL 5 mg/kg; 0.500 h; individual animal; read-out: CSF concentration

{"Chemical String": "CN1CCc2cccc3c2[C@@H]1Cc1ccc(O)c(O)c1-3", "concentration at 0.5 h [ng/mL]": 6.23}

* * *

Test Description: Plasma and CSF pharmacokinetic study, single sublingual, oral or subcutaneous dose, male Beagle dogs
Type: in vivo
Run Parameters: dog, in vivo; male Beagle dogs (fasted), single SL 5 mg/kg, plasma, mean; read-out: AUCinf

{"Chemical String": "CN1CCc2cccc3c2[C@@H]1Cc1ccc(O)c(O)c1-3", "AUC(0-inf)": "0.162 µg·h/mL"}

* * *

Test Description: in vivo
Run Parameters: male, SD, rat

{"Chemical String": "CN1CCc2cccc3c2[C@@H]1Cc1ccc(O)c(O)c1-3", "Unit Tag": "ng/mL", "concentration at […]": 114}

* * *

Test Description: in vivo
Run Parameters: male, C57BL/6J, mouse, po, 25 mg/kg, Plasma concentration, Mean
Quantity Kind: concentration at 12 h (ng/mL)

{"Chemical String": "CN1CCc2cccc3c2[C@@H]1Cc1ccc(O)c(O)c1-3", "Experimental Value": 0.174}

* * *

Test Description: in vivo
Run Parameters: male, SD, rat, sc, 0.88 mg/kg, MRTInf
Quantity Kind: MRT inf (min)

{"Chemical String": "CN1CCc2cccc3c2[C@@H]1Cc1ccc(O)c(O)c1-3", "Experimental Value": 52.4}

* * *

Test Description: in vivo
Run Parameters: male, SD, rat, iv, 0.88 mg/kg, Vss
Quantity Kind: Vd (L/kg)

{"Chemical String": "CN1CCc2cccc3c2[C@@H]1Cc1ccc(O)c(O)c1-3", "Experimental Value": 12.8}

* * *

Test Description: Plasma and CSF pharmacokinetic study, single sublingual, oral or subcutaneous dose, male Beagle dogs
Assay type: in vivo
Run Parameters: male, beagle, dog, in vivo, 5 mg/kg, plasma concentration

{"Chemical String": "CN1CCc2cccc3c2[C@@H]1Cc1ccc(O)c(O)c1-3", "concentration at […]": "151 ng/mL"}

* * *

Test Description: in vivo
Run Parameters: male, C57BL/6J, mouse, po, 25 mg/kg, Plasma concentration, male C57BL/6J mice, repeated oral dose 25 mg/kg, 1 h post last day (Day 4) dose, G1

{"Chemical String": "CN1CCc2cccc3c2[C@@H]1Cc1ccc(O)c(O)c1-3", "concentration at 1 h / ng/mL": 112}

* * *

Test Description: in vivo
Run Parameters: male, C57BL/6J, mouse, po, 25 mg/kg, Cmax, brain, Mean, male C57BL/6J mice, last day (Day 4) of repeated oral dose 25 mg/kg
Quantity Kind: Cmax (ng/mL)

{"Chemical String": "CN1CCc2cccc3c2[C@@H]1Cc1ccc(O)c(O)c1-3", "Experimental Value": 2330}

* * *

Test Description: in vivo
Run Parameters: male, C57BL/6J, mouse, po, 25 mg/kg, CSF concentration, male C57BL/6J mice, repeated oral dose 25 mg/kg, […] post last day (Day 4) dose, G2

{"Chemical String": "CN1CCc2cccc3c2[C@@H]1Cc1ccc(O)c(O)c1-3", "concentration at […] [ng/mL]": 178}
